For each of the molecules below, state its pIC50.
Target: full-length LRRK2 G2019S (Homo sapiens, UniProt Q5S007, G2019S)
Construct: DYKDDDDK (FLAG)
Sequence (Q5S007 whole entry G2019S): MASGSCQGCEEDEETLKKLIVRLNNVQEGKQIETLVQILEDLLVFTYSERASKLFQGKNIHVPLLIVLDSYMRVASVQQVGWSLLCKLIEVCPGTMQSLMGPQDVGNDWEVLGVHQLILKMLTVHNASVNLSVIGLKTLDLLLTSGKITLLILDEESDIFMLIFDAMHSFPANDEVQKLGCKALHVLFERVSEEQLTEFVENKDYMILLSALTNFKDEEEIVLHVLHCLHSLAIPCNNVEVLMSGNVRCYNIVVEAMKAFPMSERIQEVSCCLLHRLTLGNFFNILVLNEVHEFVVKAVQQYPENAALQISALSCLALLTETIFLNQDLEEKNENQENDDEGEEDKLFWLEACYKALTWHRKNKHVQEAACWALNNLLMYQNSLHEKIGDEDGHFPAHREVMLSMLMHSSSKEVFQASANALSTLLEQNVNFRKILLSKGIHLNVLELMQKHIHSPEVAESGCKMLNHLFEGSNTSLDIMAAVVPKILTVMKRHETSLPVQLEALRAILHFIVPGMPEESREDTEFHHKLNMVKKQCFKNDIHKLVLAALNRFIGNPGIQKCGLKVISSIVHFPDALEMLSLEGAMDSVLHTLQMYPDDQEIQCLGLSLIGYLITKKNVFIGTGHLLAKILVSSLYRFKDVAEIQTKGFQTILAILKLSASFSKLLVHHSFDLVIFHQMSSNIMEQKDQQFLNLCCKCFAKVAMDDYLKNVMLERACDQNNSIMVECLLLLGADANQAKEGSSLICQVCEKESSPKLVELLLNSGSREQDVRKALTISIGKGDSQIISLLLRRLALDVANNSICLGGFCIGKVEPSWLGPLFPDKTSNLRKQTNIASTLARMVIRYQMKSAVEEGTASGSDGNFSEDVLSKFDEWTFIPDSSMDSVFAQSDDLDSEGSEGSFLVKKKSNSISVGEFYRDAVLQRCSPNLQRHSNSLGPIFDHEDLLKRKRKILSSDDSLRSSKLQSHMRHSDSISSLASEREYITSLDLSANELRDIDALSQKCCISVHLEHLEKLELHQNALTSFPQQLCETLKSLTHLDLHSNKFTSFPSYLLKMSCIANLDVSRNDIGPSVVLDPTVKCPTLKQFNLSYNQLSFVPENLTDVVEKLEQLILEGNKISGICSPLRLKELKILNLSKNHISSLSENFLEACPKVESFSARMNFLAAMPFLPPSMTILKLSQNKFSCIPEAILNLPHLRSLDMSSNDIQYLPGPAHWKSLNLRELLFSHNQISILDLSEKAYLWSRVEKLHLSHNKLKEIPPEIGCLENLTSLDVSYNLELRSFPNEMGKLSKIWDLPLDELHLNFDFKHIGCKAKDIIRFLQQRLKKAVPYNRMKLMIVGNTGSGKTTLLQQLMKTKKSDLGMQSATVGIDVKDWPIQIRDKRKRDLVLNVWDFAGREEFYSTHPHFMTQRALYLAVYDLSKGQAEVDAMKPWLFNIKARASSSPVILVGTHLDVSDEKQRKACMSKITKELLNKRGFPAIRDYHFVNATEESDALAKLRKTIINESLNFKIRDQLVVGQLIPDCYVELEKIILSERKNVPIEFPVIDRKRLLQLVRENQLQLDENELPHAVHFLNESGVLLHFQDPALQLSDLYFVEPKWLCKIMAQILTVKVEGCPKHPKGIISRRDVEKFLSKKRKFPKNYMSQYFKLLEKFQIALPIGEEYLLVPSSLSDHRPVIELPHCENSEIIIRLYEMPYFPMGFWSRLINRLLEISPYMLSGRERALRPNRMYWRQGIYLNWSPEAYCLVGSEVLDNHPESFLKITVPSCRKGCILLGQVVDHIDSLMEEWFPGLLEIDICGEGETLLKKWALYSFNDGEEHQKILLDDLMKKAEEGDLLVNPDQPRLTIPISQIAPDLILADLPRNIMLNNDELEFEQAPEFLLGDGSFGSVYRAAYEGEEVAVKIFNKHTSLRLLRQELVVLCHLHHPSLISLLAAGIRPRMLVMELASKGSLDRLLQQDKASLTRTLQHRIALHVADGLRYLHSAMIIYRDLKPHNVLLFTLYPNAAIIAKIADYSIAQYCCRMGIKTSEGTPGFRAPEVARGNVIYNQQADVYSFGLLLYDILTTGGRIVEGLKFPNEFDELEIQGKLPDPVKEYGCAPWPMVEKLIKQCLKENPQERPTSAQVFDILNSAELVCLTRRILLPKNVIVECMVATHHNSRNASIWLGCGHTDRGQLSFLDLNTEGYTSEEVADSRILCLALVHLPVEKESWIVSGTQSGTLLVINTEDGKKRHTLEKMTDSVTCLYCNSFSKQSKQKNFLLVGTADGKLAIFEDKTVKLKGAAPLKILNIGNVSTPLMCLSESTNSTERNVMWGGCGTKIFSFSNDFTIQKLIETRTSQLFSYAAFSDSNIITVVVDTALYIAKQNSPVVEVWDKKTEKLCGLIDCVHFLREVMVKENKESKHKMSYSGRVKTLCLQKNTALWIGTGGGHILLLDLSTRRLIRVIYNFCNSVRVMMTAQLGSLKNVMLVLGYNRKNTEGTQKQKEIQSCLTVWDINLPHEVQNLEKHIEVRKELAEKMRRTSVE
Experiment: LRRK2-G2019S kinase activity assay (Lanthascreen TR-FRET)
Settings: 1.1 mM ATP
By convention, pIC50 is the negative base-10 log of a molar concentration.

Data request: Value lookup for pIC50; key = COCC(C)n1c(C#N)cc2cnc(Nc3cn(C4CCC(C)(O)CC4)nc3OC(C)C)nc21 (centres unmarked) [Example 104]
Data returned: 7.38

Data request: Follow-up item: COC[C@H](C)n1c(C#N)cc2cnc(Nc3cn(COC)nc3OC3CC3)nc21
Data returned: 8.40

Data request: Follow-up item: [2H]C([2H])([2H])n1cc(Nc2ncc3cc(C#N)n(C4CCOCC4)c3n2)c(OC2COC2(C)C)n1 (single isomer, unassigned) [Example 120]
Data returned: 6.75

Data request: Follow-up item: COC[C@H](C)n1c(C#N)cc2cnc(Nc3cn(CS(C)(=O)=O)nc3OC3COC3)nc21
Data returned: 8.40

Data request: Follow-up item: C[C@@H]1OC[C@H]1Oc1nn(C)cc1Nc1ncc2cc(C#N)n([C@H]3COC[C@@H]3C)c2n1 (single isomer, unassigned) [Example 7]
Data returned: 8.70

Data request: Follow-up item: COCC(C)n1cc(Nc2ncc3cc(C#N)n([C@@H](C)COC)c3n2)c(OC2COC2)n1 (single isomer, unassigned) [Example 129]
Data returned: 7.43

Data request: Follow-up item: C[C@H]1COC[C@H]1n1c(C#N)cc2cnc(Nc3cn(C)nc3OC3COC3)nc21 (single isomer, unassigned) [Example 45]
Data returned: 7.46

Data request: Follow-up item: COCC(C)n1cc(Nc2ncc3cc(C#N)n([C@H]4COC[C@@H]4C)c3n2)c(OC2COC2)n1 (some centres unmarked)
Data returned: 6.98

Data request: Follow-up item: [2H]C([2H])([2H])n1cc(Nc2ncc3cc(C#N)n([C@H]4COC[C@@H]4C)c3n2)c(OC2CCOC2)n1 (single isomer, unassigned) [Example 111]
Data returned: 7.66

Data request: Follow-up item: COCCn1cc(Nc2ncc3cc(C#N)n(C4CCOCC4)c3n2)c(OC2CC2)n1
Data returned: 6.65

Data request: Follow-up item: CO[C@H]1COC[C@H]1n1c(C#N)cc2cnc(Nc3cn(C4COC4)nc3OC(C)C(F)(F)F)nc21 (mixture of isomers)
Data returned: 7.57

Data request: Follow-up item: C[C@H]1COC[C@@H]1n1c(C#N)cc2cnc(Nc3cn(CS(C)(=O)=O)nc3OC3COC3)nc21
Data returned: 8.70

Data request: Follow-up item: CO[C@@H]1COC[C@H]1n1c(C#N)cc2cnc(Nc3cn(C)nc3OC3COC3)nc21 (racemic)
Data returned: 6.80

Data request: Follow-up item: CC(Oc1nn(C)cc1Nc1ncc2cc(C#N)n([C@H]3COC[C@@H]3C)c2n1)C(F)(F)F (single isomer, unassigned) [Example 21]
Data returned: 9.00

These data points were gathered from patent US20240383901A1.
